The measured values listed here are drawn from paper PMC8037530.

# subjectOfTest: AChE from electric eel (Electrophorus electricus) (Electrophorus electricus)
# Construct: purchased Sigma, St. Louis, MO, USA
# Sequence (O42275 24-633): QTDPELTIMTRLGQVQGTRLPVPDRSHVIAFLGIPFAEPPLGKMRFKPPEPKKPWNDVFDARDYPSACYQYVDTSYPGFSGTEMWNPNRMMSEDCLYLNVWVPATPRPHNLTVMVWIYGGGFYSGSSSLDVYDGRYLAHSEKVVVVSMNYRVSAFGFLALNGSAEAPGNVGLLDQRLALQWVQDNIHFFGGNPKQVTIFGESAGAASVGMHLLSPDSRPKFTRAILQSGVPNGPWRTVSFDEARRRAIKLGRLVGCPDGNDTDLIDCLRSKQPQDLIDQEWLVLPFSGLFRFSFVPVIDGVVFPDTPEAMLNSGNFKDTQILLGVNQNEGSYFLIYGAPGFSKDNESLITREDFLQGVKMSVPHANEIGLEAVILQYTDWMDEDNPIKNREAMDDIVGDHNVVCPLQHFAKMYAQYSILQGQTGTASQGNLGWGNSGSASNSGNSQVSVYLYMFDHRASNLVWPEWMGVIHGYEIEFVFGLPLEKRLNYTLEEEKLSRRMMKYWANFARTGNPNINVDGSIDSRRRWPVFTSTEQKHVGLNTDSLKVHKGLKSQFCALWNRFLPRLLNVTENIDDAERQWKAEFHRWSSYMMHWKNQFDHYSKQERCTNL
# assayExplanation: In vitro AChE inhibition, modified Ellman's method
# Format: biochemical
pIC50: −log10 of the molar value.
readoutLabel: pIC50

compound="O=C(Nc1ccc(C(=O)Nc2ccc(F)cc2F)c(O)c1)OCc1ccccc1 [Compound 17]" val=4.10
compound="O=C(Nc1ccc(C(=O)Nc2ccc(C(F)(F)F)cc2)c(O)c1)OCc1ccccc1 [Compound 14]" val=4.15
compound="O=C(Nc1ccc(C(=O)Nc2cccc(F)c2F)c(O)c1)OCc1ccccc1 [Compound 16]" val=4.20
compound="O=C(Nc1ccc(C(=O)Nc2cccc(Cl)c2Cl)c(O)c1)OCc1ccccc1 [Compound 21]" val=4.05
compound="O=C(Nc1ccc(C(=O)Nc2cccc(Cl)c2)c(O)c1)OCc1ccccc1 [Compound 10]" val=4.21
compound="O=C(Nc1ccc(C(=O)Nc2c(Cl)cccc2Cl)c(O)c1)OCc1ccccc1 [Compound 23]" val=4.11
compound="O=C(Nc1ccc(C(=O)Nc2cc(F)c(F)c(F)c2)c(O)c1)OCc1ccccc1 [Compound 29]" val=4.21
compound="COc1cccc(NC(=O)c2ccc(NC(=O)OCc3ccccc3)cc2O)c1 [Compound 3]" val=4.16
compound="O=C(Nc1ccc(C(=O)Nc2cc(F)cc(F)c2)c(O)c1)OCc1ccccc1 [Compound 20]" val=4.17
compound="O=C(Nc1ccc(C(=O)Nc2cc(Cl)cc(Cl)c2)c(O)c1)OCc1ccccc1 [Compound 25]" val=4.30
compound="O=C(Nc1ccc(C(=O)Nc2ccccc2C(F)(F)F)c(O)c1)OCc1ccccc1 [Compound 12]" val=4.25
compound="Cc1cccc(NC(=O)c2ccc(NC(=O)OCc3ccccc3)cc2O)c1 [Compound 5]" val=4.15
compound="O=C(Nc1ccc(C(=O)Nc2cccc(F)c2)c(O)c1)OCc1ccccc1 [Compound 7]" val=4.18
compound="O=C(Nc1ccc(C(=O)Nc2ccccc2OC(F)(F)F)c(O)c1)OCc1ccccc1 [Compound 15]" val=4.44

----------
# subjectOfTest: BChE from equine serum (Equus caballus, UniProt P81908)
# Construct: BChE from equine serum; purchased Sigma, St. Louis, MO, USA; host or cells: equine serum
# Sequence (P81908 whole entry): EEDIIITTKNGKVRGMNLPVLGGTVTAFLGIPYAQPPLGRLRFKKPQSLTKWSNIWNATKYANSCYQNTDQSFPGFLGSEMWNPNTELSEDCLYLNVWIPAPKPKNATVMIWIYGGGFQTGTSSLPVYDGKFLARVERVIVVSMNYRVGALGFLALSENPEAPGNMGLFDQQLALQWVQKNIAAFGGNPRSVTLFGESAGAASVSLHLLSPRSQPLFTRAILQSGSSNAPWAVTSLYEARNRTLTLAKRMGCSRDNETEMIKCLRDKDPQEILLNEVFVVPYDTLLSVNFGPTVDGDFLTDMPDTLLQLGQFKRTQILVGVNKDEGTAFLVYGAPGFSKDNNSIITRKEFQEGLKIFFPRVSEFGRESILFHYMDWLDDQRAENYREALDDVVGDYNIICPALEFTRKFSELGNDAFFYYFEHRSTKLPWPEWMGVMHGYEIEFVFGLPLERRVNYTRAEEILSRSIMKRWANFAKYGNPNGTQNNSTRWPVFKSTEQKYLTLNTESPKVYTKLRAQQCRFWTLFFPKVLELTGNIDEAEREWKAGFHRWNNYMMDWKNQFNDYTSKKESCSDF
# assayExplanation: In vitro BChE inhibition, modified Ellman's method
# Type: biochemical
# particulars: ratio IC50 AChE/IC50 BChE
# Procedure: The ability of all the prepared compounds to inhibit AChE from electric eel (Electrophorus electricus) and BChE from equine serum (both purchased from Sigma, St. Louis, MO, USA) was determined in vitro using a modified Ellman’s method, as described in detail elsewhere. This is a simple, rapid, and direct method to determine the SH and -S-S- group content in proteins. […] The effectiveness of the tested inhibitors is expressed as the IC50 values. […]
Record T whenever SI (index selectivity) = IC50 (AChE)/IC50 (BChE) is at 0.5 or higher; record F when lower.

compound=Cc1cccc(NC(=O)c2ccc(NC(=O)OCc3ccccc3)cc2O)c1 assignedclass=F
compound=O=C(Nc1ccc(C(=O)Nc2cc(F)c(F)c(F)c2)c(O)c1)OCc1ccccc1 assignedclass=F
compound=COc1cccc(NC(=O)c2ccc(NC(=O)OCc3ccccc3)cc2O)c1 assignedclass=F
compound=O=C(Nc1ccc(C(=O)Nc2ccccc2Cl)c(O)c1)OCc1ccccc1 assignedclass=F
compound=O=C(Nc1ccc(C(=O)Nc2ccc(Br)cc2Br)c(O)c1)OCc1ccccc1 assignedclass=F
compound=O=C(Nc1ccc(C(=O)Nc2ccc(Cl)c(Cl)c2)c(O)c1)OCc1ccccc1 assignedclass=F
compound=O=C(Nc1ccc(C(=O)Nc2ccc(F)cc2F)c(O)c1)OCc1ccccc1 assignedclass=F
compound=O=C(Nc1ccc(C(=O)Nc2c(F)cccc2F)c(O)c1)OCc1ccccc1 assignedclass=T
compound="O=C(Nc1ccc(C(=O)O)c(O)c1)OCc1ccccc1 [CbzPAS, reference compound]" assignedclass=F
compound=O=C(Nc1ccc(C(=O)Nc2ccccc2C(F)(F)F)c(O)c1)OCc1ccccc1 assignedclass=T
compound=O=C(Nc1ccc(C(=O)Nc2cccc(Cl)c2)c(O)c1)OCc1ccccc1 assignedclass=F
compound=COc1ccc(NC(=O)c2ccc(NC(=O)OCc3ccccc3)cc2O)cc1 assignedclass=F
compound=O=C(Nc1ccc(C(=O)Nc2c(Br)cc(Br)cc2Br)c(O)c1)OCc1ccccc1 assignedclass=T
compound=O=C(Nc1ccc(C(=O)Nc2cccc(F)c2F)c(O)c1)OCc1ccccc1 assignedclass=F
compound=O=C(Nc1ccc(C(=O)Nc2cccc(Cl)c2Cl)c(O)c1)OCc1ccccc1 assignedclass=F
compound=O=C(Nc1ccc(C(=O)Nc2cc(F)cc(F)c2)c(O)c1)OCc1ccccc1 assignedclass=F
compound=O=C(Nc1ccc(C(=O)Nc2ccccc2F)c(O)c1)OCc1ccccc1 assignedclass=T
compound=O=C(Nc1ccc(C(=O)Nc2c(Cl)cccc2Cl)c(O)c1)OCc1ccccc1 assignedclass=T
compound=O=C(Nc1ccc(C(=O)Nc2ccc(Cl)cc2)c(O)c1)OCc1ccccc1 assignedclass=T
compound=O=C(Nc1ccc(C(=O)Nc2c(F)cc(F)cc2F)c(O)c1)OCc1ccccc1 assignedclass=T
compound=O=C(Nc1ccc(C(=O)Nc2cc(C(F)(F)F)cc(C(F)(F)F)c2)c(O)c1)OCc1ccccc1 assignedclass=F
compound=O=C(Nc1ccc(C(=O)Nc2ccccc2OC(F)(F)F)c(O)c1)OCc1ccccc1 assignedclass=T
compound=O=C(Nc1ccc(C(=O)Nc2cc(Cl)ccc2Cl)c(O)c1)OCc1ccccc1 assignedclass=T
compound=O=C(Nc1ccc(C(=O)Nc2ccc(F)cc2)c(O)c1)OCc1ccccc1 assignedclass=F
compound=O=C(Nc1ccc(C(=O)Nc2cccc(C(F)(F)F)c2)c(O)c1)OCc1ccccc1 assignedclass=F
compound=O=C(Nc1ccc(C(=O)Nc2c(Cl)cc(Cl)cc2Cl)c(O)c1)OCc1ccccc1 assignedclass=T
compound=COc1ccccc1NC(=O)c1ccc(NC(=O)OCc2ccccc2)cc1O assignedclass=T
compound=O=C(Nc1ccc(C(=O)Nc2cc(Cl)cc(Cl)c2)c(O)c1)OCc1ccccc1 assignedclass=F
compound=O=C(Nc1ccc(C(=O)Nc2ccc(C(F)(F)F)cc2)c(O)c1)OCc1ccccc1 assignedclass=T
compound=O=C(Nc1ccc(C(=O)Nc2ccccc2)c(O)c1)OCc1ccccc1 assignedclass=F
compound=O=C(Nc1ccc(C(=O)Nc2cccc(F)c2)c(O)c1)OCc1ccccc1 assignedclass=F
compound=O=C(Nc1ccc(C(=O)Nc2cc(F)ccc2F)c(O)c1)OCc1ccccc1 assignedclass=F

----------
Each record here notes measured log k.
# assayExplanation: Determination of lipophilicity by RP-HPLC (capacity factor k)
# Format: physicochemical
# particulars: C18, isocratic MeOH 72%/H2O 28%, 40 °C
readoutLabel: log k

structurenotation=O=C(Nc1ccc(C(=O)Nc2c(Br)cc(Br)cc2Br)c(O)c1)OCc1ccccc1 val=0.4427
structurenotation=O=C(Nc1ccc(C(=O)Nc2cc(Cl)ccc2Cl)c(O)c1)OCc1ccccc1 val=0.6138
structurenotation=O=C(Nc1ccc(C(=O)Nc2ccc(F)cc2F)c(O)c1)OCc1ccccc1 val=0.1912
structurenotation=COc1cccc(NC(=O)c2ccc(NC(=O)OCc3ccccc3)cc2O)c1 val=0.1280

----------
# subjectOfTest: BChE from equine serum (Equus caballus, UniProt P81908)
# Construct: BChE from equine serum; purchased Sigma, St. Louis, MO, USA; host or cells: equine serum
# assayExplanation: In vitro BChE inhibition, modified Ellman's method
# Type: biochemical
readoutLabel: IC50 (µM)

compound="O=C(Nc1ccc(C(=O)O)c(O)c1)OCc1ccccc1 [CbzPAS, reference compound]" readoutlabel=IC50 val=137
compound=O=C(Nc1ccc(C(=O)Nc2cccc(F)c2F)c(O)c1)OCc1ccccc1 readoutlabel=IC50 val=200
compound=O=C(Nc1ccc(C(=O)Nc2cccc(Cl)c2Cl)c(O)c1)OCc1ccccc1 readoutlabel=IC50 val=248
compound=O=C(Nc1ccc(C(=O)Nc2ccc(Cl)cc2)c(O)c1)OCc1ccccc1 readoutlabel=IC50 val=139
compound=O=C(Nc1ccc(C(=O)Nc2ccc(Cl)c(Cl)c2)c(O)c1)OCc1ccccc1 readoutlabel=IC50 val=185
compound=O=C(Nc1ccc(C(=O)Nc2ccccc2Cl)c(O)c1)OCc1ccccc1 readoutlabel=IC50 val=140
compound=O=C(Nc1ccc(C(=O)Nc2ccc(Br)cc2Br)c(O)c1)OCc1ccccc1 readoutlabel=IC50 val=262
